Target: PI3K α (Homo sapiens, UniProt P42336)
Construct: Full length p110 subunits of PI3K α, β and δ, N-terminally labeled with polyHis tag; polyHis (N)
Sequence (P42336 whole entry, species assumed): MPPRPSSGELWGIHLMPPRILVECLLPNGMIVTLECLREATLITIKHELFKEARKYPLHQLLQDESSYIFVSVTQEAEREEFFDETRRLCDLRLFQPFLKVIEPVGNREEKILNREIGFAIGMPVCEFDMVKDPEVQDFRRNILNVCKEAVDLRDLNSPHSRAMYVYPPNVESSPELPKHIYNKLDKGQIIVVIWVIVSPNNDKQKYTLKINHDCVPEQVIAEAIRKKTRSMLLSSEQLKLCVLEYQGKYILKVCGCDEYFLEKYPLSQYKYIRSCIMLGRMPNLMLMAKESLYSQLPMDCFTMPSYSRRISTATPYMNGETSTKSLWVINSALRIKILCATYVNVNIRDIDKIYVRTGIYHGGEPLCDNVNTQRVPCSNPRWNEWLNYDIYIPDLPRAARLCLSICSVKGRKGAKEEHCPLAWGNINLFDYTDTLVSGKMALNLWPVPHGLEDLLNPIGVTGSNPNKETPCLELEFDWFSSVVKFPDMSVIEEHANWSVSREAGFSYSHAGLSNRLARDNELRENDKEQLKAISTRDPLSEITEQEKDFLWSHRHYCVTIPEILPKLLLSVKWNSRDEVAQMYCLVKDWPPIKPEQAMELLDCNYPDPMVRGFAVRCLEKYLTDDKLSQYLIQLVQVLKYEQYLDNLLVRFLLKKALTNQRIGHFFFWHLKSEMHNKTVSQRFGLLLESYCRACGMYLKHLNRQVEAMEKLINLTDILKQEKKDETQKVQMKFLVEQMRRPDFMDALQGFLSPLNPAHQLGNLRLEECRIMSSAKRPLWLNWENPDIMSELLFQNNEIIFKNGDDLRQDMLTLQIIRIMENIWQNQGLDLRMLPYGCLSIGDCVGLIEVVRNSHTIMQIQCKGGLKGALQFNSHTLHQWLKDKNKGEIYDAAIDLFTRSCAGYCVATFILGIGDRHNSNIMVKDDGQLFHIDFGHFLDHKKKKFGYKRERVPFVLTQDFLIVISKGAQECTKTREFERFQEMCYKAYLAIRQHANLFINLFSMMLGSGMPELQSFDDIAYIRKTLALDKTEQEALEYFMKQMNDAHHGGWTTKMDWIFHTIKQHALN
Sequence (P27986 whole entry partner, species assumed): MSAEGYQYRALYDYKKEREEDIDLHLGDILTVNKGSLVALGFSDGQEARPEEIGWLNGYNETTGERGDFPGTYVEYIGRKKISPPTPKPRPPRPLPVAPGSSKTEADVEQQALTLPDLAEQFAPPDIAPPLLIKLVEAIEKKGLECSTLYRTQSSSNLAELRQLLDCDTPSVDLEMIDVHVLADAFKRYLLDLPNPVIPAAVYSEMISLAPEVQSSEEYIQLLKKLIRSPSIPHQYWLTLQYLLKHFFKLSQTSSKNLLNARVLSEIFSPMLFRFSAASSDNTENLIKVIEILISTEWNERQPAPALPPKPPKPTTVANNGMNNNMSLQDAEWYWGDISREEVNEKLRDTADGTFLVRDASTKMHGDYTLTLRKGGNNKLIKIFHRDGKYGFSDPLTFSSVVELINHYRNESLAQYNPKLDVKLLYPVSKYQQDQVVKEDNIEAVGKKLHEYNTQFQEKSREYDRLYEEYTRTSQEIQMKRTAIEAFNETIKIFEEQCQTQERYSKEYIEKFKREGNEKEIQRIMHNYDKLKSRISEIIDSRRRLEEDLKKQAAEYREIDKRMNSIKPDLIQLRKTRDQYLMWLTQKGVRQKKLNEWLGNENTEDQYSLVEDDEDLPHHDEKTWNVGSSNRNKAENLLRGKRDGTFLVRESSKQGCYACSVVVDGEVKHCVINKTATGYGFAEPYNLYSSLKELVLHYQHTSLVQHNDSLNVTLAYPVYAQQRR
Assay: In vitro PI3 kinase enzyme assay (alpha), ATP loss, bioluminescence;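 also: purified p110α/p85 heterodimer acting on PtdIns(4,5)P2 at room temperature, remaining ATP read by luminescence, inhibition scaled between compound-free wells with and without enzyme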
Settings: read-out: PI3Kα ATP loss IC50
property: pIC50
FYI, pIC50 means -log10 of a concentration in mol per litre.

In the examples that follow, each entry is paired with its recorded pIC50.
Enquiry: Under PI3K α (Homo sapiens, UniProt P42336): pIC50 value of `COc1ccc(S(=O)(=O)Nc2cc(-c3ccc4nc(NC(C)=O)sc4c3)cnc2Cl)cc1` ?
Return: 8.52

Enquiry: And for `CC(=O)Nc1nc2ccc(-c3cnc(OC(F)F)cc3C)cc2s1` ?
Return: 4.93

Enquiry: And for `Nc1nc2ccc(-c3cnc(Cl)c(NS(=O)(=O)c4ccc(F)cc4Cl)c3)cc2s1` ?
Return: 7.83

Enquiry: And for `Cc1ccc(S(=O)(=O)Nc2nnc(-c3ccc4nc(NC(=O)OC(C)(C)C)sc4c3)o2)cc1` ?
Return: 6.47

Enquiry: And for `CC(=O)Nc1nc2ccc(-c3ccnc(N(C)S(=O)(=O)c4ccc(C(F)(F)F)cc4)n3)cc2s1` ?
Return: 7.04

---
Enquiry: Under PI3K α (Homo sapiens, UniProt P42336): pIC50 value of `CC(=O)Nc1nc2ccc(-c3cccc(S(=O)(=O)c4cccc(F)c4)n3)cc2s1` ?
Return: 6.52

Enquiry: And for `CC(C)(C)OC(=O)Nc1nc2ccc(-c3nnc(NCc4ccccc4)o3)cc2s1` ?
Return: 5.37

Enquiry: And for `CC(=O)Nc1nc2ccc(-c3cnc(Cl)c(NS(=O)(=O)c4cc(Cl)cc(Cl)c4)c3)cc2s1` ?
Return: 8.49
